The values you see were collected from the nanobody polyreactivity screen of Harvey et al. (2022).

# method-summary: yeast display, Sf9 membrane polyspecificity reagent, FACS + sequencing; frameworks hold sequencing errors

{"construct-sequence": "QVQLVESGGGLVQAGGSLRLSCAASGSTFGWNAMGWYRQAPGKERELVAAISSSGGITYYADSVKGRFTISRDNAKNTVYLQMNSLKPEDTAVYYCAAERDDDWVNYWGQGTQVTVSS", "polyreactivity (PSR sort gate)": "low polyreactivity"}
{"construct-sequence": "QVQLVESGGGLVQAGGSLRVSCAASGYFFHYHAMGWYRHAPGKEREFVAAISQGGGSTYYADSVKGRFTISRDNAKKTVSLQMISLKPEDTAVYYCAADYRSGYREMDYWGQGTQVTVSS", "polyreactivity (PSR sort gate)": "low polyreactivity"}
{"construct-sequence": "QVQLVESGGGLVQAGGSLRLSCAASGRILGDNVMGWYRQAPGKERELVAAISSGSGSTYYADSVKGRFTISRDNAKNTVYLQMNSLKPEDTAVYYCAAGPYIYPRYDYWGQGTQVTVSS", "polyreactivity (PSR sort gate)": "low polyreactivity"}
{"construct-sequence": "QVQLVESGGGLVQAGGSLRLSCAASGRIFRYYAMGWYRQAPGKERELVASISNGGGTYYADSVKGRFTISRDNAKNTVYLQMNSLKPEDTAVYYCNARKWSQYIVPLRDYWGQGTQVTVSS", "polyreactivity (PSR sort gate)": "high polyreactivity"}
{"construct-sequence": "QVQLVESWGGLVQAGGSLRLSCAASGRIFYVYDMGWYRQAPGKERELVAAISWSGGSTSYADSVKGRFTISRDKAMYTVYLQMNSLKPEDTAVNYCAATSAIGWGYDYWGQGTQVNVSS", "polyreactivity (PSR sort gate)": "low polyreactivity"}
{"construct-sequence": "QVQLVESGGGLVQAGGTLRLSCAASGSTFRYYAMGWYRQAPGKERELVATITSDGSTNYADSVKGRFTFSRDNAKNTVYLQLNSLKPEDTAVYYCNARCRRYKSSNSWGQGTQVTVSS", "polyreactivity (PSR sort gate)": "high polyreactivity"}
{"construct-sequence": "QVQLVESVGGLVQAGGSLLLSCAASGFTFGPYAMGWYRQAPGKERELVAAISRSGGSTYYSDSVKGRFTISRYNAKNTVYLQLNSLKPEDTAVYYCAACSAYLWGQGTQVTVSS", "polyreactivity (PSR sort gate)": "low polyreactivity"}
{"construct-sequence": "QVKRVESGGGLVQAGGSLRLSCAASGSIFDEYAMGWYIQAPGKERELVAAITRTGGRTYYADSVKGRFTISRENAKNSVYLQMNSLIPEDTAVYFCNAPSRTRYDYWGQGTQVTVSS", "polyreactivity (PSR sort gate)": "low polyreactivity"}
{"construct-sequence": "QVQLVESCGGLVQAGGSLRLSCAASGHIFFYYTMGWYRQAPGKQRELVAGITIGGSTNYADSVKGRFTISRDNAKNTVYLQMNSLKPEDTAVYYCNVVKYVYIYSYWEYYYWGQGTQVTVSS", "polyreactivity (PSR sort gate)": "low polyreactivity"}
{"construct-sequence": "QVQLVESGGGLVQAGGSLRLSCADSGFTFYYSAMGWYRQAPGKEREVVAAISWGGGTTYYADSVKGRFTISRDNAKNTVYLQMNSLKPEDTAVFYCNAASSLPGYDYWGQGTQVTVSS", "polyreactivity (PSR sort gate)": "high polyreactivity"}
{"construct-sequence": "QVQLVESGGGLVQAGGSLRLSCAASGRTFWNYAMGWYRQATGKERELVAVIRFSDGSTYYADSVKGRFTISRDNAKNTVYLQMNSLKPEDTAVYYCAAKGPRRWGSGFDYWGQGTQVTVSS", "polyreactivity (PSR sort gate)": "low polyreactivity"}
{"construct-sequence": "QVQLVESGGGLVQAGGSLRLSCAASGFTILRYAMGWYRQAPGKERDLVAAISTSGGSTSYADSVKGRFTISRDNAKNTVYVQMYSLKPEDSAVYYCKAVLYKAYWQLYDYWGQGSQVTVSS", "polyreactivity (PSR sort gate)": "high polyreactivity"}
{"construct-sequence": "QVQLVESGGALDQAGGSLRLSCAASGSTFVVNAMGWYIQAPGKERELVAGITTSGGSTYYADSVKGRFTISRDNAKTTVYLQMNSLKPEDTAVYYCAARRWPYVYRFRAYSGFDYWGQGTHVTVSS", "polyreactivity (PSR sort gate)": "low polyreactivity"}
{"construct-sequence": "QVHLVESGVGLDQAGGSLRLSCASTGYIFETYAMGWYRPATGKERELVAAISRGASTYYADSVKGRFTISRDNAQNTVSLQLNSLKQEDTAVYYCAPTRRSWHRYGYWGQGTQVTVSS", "polyreactivity (PSR sort gate)": "low polyreactivity"}
{"construct-sequence": "QDQLVESGGGLVQAGGSLSLSCAASGRTFAVYAMGWYRQAPGKEMELVAAITQSGGSTYYADSVKGRFTISRDNAKNTVYLQINSMKPEDTAVYYCAKTGRFPYTAGQSFGYDYWGQGTQVTVSS", "polyreactivity (PSR sort gate)": "low polyreactivity"}
{"construct-sequence": "QVQLVESGGGLVQAGGSLRLSCAASGIIFRRYAMGWYRQAPGKERELVATITRSGSTNYADSVKGRFTISRDNAKNTVYLQMNSLKPEDTAVYYCNADYIRGGWYSEDYWGQGTQVTVSS", "polyreactivity (PSR sort gate)": "high polyreactivity"}
{"construct-sequence": "QVQLVESGGGLVQAGGSLRLSCAASGRIFRTYAMGWSRQAPGKERELVAAISGSGGRTYYADSVKGRFTISRDNAKNTVYLQMNSLKPEDTAVYYCAKYVSIVRYGSTTNYDYWGQGTQVTVSS", "polyreactivity (PSR sort gate)": "high polyreactivity"}
{"construct-sequence": "QVQLVESGGGLVQAGGSLRLSCAASGRIDRPYAMGLYRPAPGKERELVAAISRRGGSTYYADSVKGRFTISRDNAKNTVYLQMKSLKPEDTAVYYCAADYWYESLRLQGIQGLDYWGQGTQVTVSS", "polyreactivity (PSR sort gate)": "high polyreactivity"}
{"construct-sequence": "QVQLVESGGGLVQAGGSLRLSCAASGSTFVIYAMGWYRQAPGKERELVASIRGRTGSTYYADSVKGRFTISRDNAKNTVYSQLNSLKPEDTAVYYCAAKPGYKSKMDYWGQGTQVTVSS", "polyreactivity (PSR sort gate)": "high polyreactivity"}
{"construct-sequence": "QVQIVESRGGLVQAGGSLRLSCSASGRTFTYYAMGWYRQAPGKERELVASITSGGSTYADSVKGRFTISRDNAMNTVYLQMNSLKPEDTAVYYCAARAWGYRYKYYWGQGTLVTVSS", "polyreactivity (PSR sort gate)": "high polyreactivity"}
{"construct-sequence": "QVQLVESGGGLVQAGGSLRLSCAASGFTFGVNAMGWYRQAPGKERELVAVITSGGNTYYADSVKGRFTISRDNAKNTVYLQMNSLKPEDTAVYYCAADLSDTSYATRYQGDYWGQGTQVTVSS", "polyreactivity (PSR sort gate)": "low polyreactivity"}
